Data origin: patent US8952024B2

# Tested on: giant foxtail (Setaria faberii)
# assayName: Test A pre-/postemergence plant response
# Assay type: in vivo
# measurementContext: Postemergence, 125 g ai/ha; visual injury, 0 to 100 scale (0 no effect, 100 complete control), approx. ten days
Reported Foxtail, Giant plant response rating is given for each of the following molecules.

molecule: CCCCc1ncc(C(=O)C2=C(O)CCCC2=O)c(=O)n1-c1ccccc1C [Compound 62]
readoutKind: Foxtail, Giant plant response rating
result: 70

molecule: CC(C)Cc1ncc(C(=O)C2=C(O)CCCC2=O)c(=O)n1-c1ccccc1 [Compound 68]
readoutKind: Foxtail, Giant plant response rating
result: 50

molecule: O=C1CCCC(O)=C1C(=O)c1cnc(-c2ccccc2)n(-c2ccc(F)cc2)c1=O [Compound 24]
readoutKind: Foxtail, Giant plant response rating
result: 70

molecule: Cc1ccc(-n2c(-c3ccccc3)ncc(C(=O)C3=C(O)CCCC3=O)c2=O)cc1C [Compound 32]
readoutKind: Foxtail, Giant plant response rating
result: 30

molecule: O=C1CCCC([O-])=C1C(=O)c1cnc(-c2ccccc2)n(-c2ccc(Cl)cc2)c1=O.[K+] [Compound 13]
readoutKind: Foxtail, Giant plant response rating
result: 30

molecule: CCCc1ncc(C(=O)C2=C(O)CCCC2=O)c(=O)n1CCC [Compound 72]
readoutKind: Foxtail, Giant plant response rating
result: 40

molecule: COc1cccc(-n2c(-c3ccccc3)ncc(C(=O)C3=C(O)CCCC3=O)c2=O)c1 [Compound 19]
readoutKind: Foxtail, Giant plant response rating
result: 20

molecule: O=C1CCCC([O-])=C1C(=O)c1cnc(-c2ccccc2)n(-c2ccccc2)c1=O.[K+] [Compound 14]
readoutKind: Foxtail, Giant plant response rating
result: 30

Now consider the entry below.
Prompt: Please look at this molecule and report its Foxtail, Giant plant response rating: Cc1ccc(Cl)cc1-n1c(-c2ccccc2)ncc(C(=O)C2=C(O)CCCC2=O)c1=O [Compound 52]
Completion: 90

###

Reported Plant response rating, Foxtail, Green is given for each of the following compounds.
# Test system: green foxtail (Setaria viridis)
# assayName: Test B pre-/postemergence plant response
# Type: in vivo
# measurementContext: Postemergence, 250 g ai/ha; scale 0 to 100 (0 no effect, 100 complete control)

compound: Cc1ccc(F)c(-n2c(-c3ccccc3)ncc(C(=O)C3=C(O)CCCC3=O)c2=O)c1
subjectOfTest: green foxtail (Setaria viridis)
Plant response rating, Foxtail, Green: 100

Prompt: Please look at this compound and report its Plant response rating, Foxtail, Green: `CCCn1c(-c2ccsc2)ncc(C(=O)C2=C(O)CCCC2=O)c1=O`
Completion: 90

Prompt: Please look at this compound and report its Plant response rating, Foxtail, Green: `COCCCn1c(-c2cccc(F)c2)ncc(C(=O)C2=C(O)CCCC2=O)c1=O`
Completion: 95

Prompt: Please look at this compound and report its Plant response rating, Foxtail, Green: `CCCc1ncc(C(=O)C2=C(O)CCCC2=O)c(=O)n1-c1cccc(C)c1`
Completion: 98

Prompt: Please look at this compound and report its Plant response rating, Foxtail, Green: `Cc1cccc(-n2c(-c3ccccc3)ncc(C(=O)C3=C(O)CCCC3=O)c2=O)c1F`
Completion: 100

Prompt: Please look at this compound and report its Plant response rating, Foxtail, Green: `O=C1CCCC(O)=C1C(=O)c1cnc(C2CCCC2)n(-c2ccccc2)c1=O`
Completion: 98

###

Reported Plant response rating, Chickweed is given for each of the following compounds.
# Test system: chickweed (Stellaria media)
# assayName: Test B postemergence plant response
# Format: in vivo
# measurementContext: Postemergence, 125 g ai/ha; visual rating after 13 to 15 days, scale 0 (no effect) to 100 (complete control)
Answer with a bare number; do not write a unit.

compound: O=C1CCCC([O-])=C1C(=O)c1cnc(-c2ccccc2)n(-c2ccccc2)c1=O.[K+] [Compound 14]
Plant response rating, Chickweed: 80

Prompt: Please look at this compound and report its Plant response rating, Chickweed: CCCn1c(-c2ccccc2)ncc(C(=O)C2=C(O)CCCC2=O)c1=O [Compound 50]
Completion: 98

Prompt: Please look at this compound and report its Plant response rating, Chickweed: CCOCCn1c(-c2ccccc2)ncc(C(=O)C2=C(O)CCCC2=O)c1=O [Compound 96]
Completion: 98

Prompt: Please look at this compound and report its Plant response rating, Chickweed: CCCCc1ncc(C(=O)C2=C(O)CCCC2=O)c(=O)n1-c1ccccc1C [Compound 62]
Completion: 75

###

# Test system: johnsongrass (Sorghum halepense)
# assayName: Test B pre-/postemergence plant response
# Format: in vivo
# measurementContext: 62 g ai/ha, postemergence; 0 is no effect, 100 is complete control; 13 to 15 days
Decision: Johnsongrass plant response rating (0 to 100 scale) >= 20 yields Condition met, all other cases yield Condition not met.

Reference set (3 entries):
molecule: O=C1CCCC(O)=C1C(=O)c1cnc(-c2ccsc2)n(CC2CCCO2)c1=O (centres unmarked)
subjectOfTest: johnsongrass (Sorghum halepense)
label: Condition met
--
molecule: O=C1CCCC(O)=C1C(=O)c1cnc(-c2ccccc2)n(C2CCCCCC2)c1=O
subjectOfTest: johnsongrass (Sorghum halepense)
label: Condition met
--
molecule: CCCn1c(-c2cccc(OC)c2)ncc(C(=O)C2=C(O)CCCC2=O)c1=O
subjectOfTest: johnsongrass (Sorghum halepense)
label: Condition not met

Prompt: Kindly determine if Johnsongrass plant response rating (0 to 100 scale) recorded for `COCCn1c(-c2ccsc2)ncc(C(=O)C2=C(O)CCCC2=O)c1=O` is above or exactly 20.
Completion: Condition met

Prompt: Kindly determine if Johnsongrass plant response rating (0 to 100 scale) recorded for `CC(C)Cc1ncc(C(=O)C2=C(O)CCCC2=O)c(=O)n1-c1ccccc1` is above or exactly 20.
Completion: Condition not met

Prompt: Kindly determine if Johnsongrass plant response rating (0 to 100 scale) recorded for `O=C1CCCC(O)=C1C(=O)c1cnc(-c2ccc(Br)cc2)n(-c2ccccc2)c1=O` is above or exactly 20.
Completion: Condition met

Prompt: Kindly determine if Johnsongrass plant response rating (0 to 100 scale) recorded for `O=C1CCCC(O)=C1C(=O)c1cnc(-c2ccccc2)n(C2CC2)c1=O` is above or exactly 20.
Completion: Condition met

###

# Tested on: yellow nutsedge (Cyperus esculentus)
# assayName: Test B pre-/postemergence plant response
# Format: in vivo
# measurementContext: Postemergence, 250 g ai/ha; scale 0 to 100 (0 no effect, 100 complete control); 13 to 15 days
Reported Plant response rating, Nutsedge, Yellow is given for each of the following compounds.
Answer with a bare number; do not write a unit.

For orientation, consider the following solved cases.
compound: O=C1CCCC(O)=C1C(=O)c1cnc(-c2ccsc2)n(C2CCOCC2)c1=O [Compound 186]
readoutNumber: 80
--
compound: COCCCn1c(-c2cc(F)cc(F)c2)ncc(C(=O)C2=C(O)C3CCC(C3)C2=O)c1=O (centres unmarked) [Compound 244]
readoutNumber: 75
--
compound: CCn1c(-c2cccc(F)c2)ncc(C(=O)C2=C(O)C3CCC(C3)C2=O)c1=O (centres unmarked) [Compound 236]
readoutNumber: 65
--
compound: O=C1CCCC(O)=C1C(=O)c1cnc(C2CC2)n(C2CCCCC2)c1=O [Compound 160]
readoutNumber: 80

Prompt: Please look at this compound and report its Plant response rating, Nutsedge, Yellow: CCCc1ncc(C(=O)C2=C(O)CCCC2=O)c(=O)n1-c1ccccc1 [Compound 217]
Completion: 70

###

# System: large crabgrass (Digitaria sanguinalis)
# assayName: Test B pre-/postemergence plant response
# Format: in vivo
# measurementContext: Preemergence, 62 g ai/ha; scale 0 to 100, 0 no effect, 100 complete control
Reported Plant response rating, Crabgrass, Large is given for each of the following compounds.
Answer with a bare number; do not write a unit.

smilesData: CCc1cccc(-n2c(-c3ccccc3)ncc(C(=O)C3=C(O)CCCC3=O)c2=O)c1
Plant response rating, Crabgrass, Large: 75

Prompt: Please look at this compound and report its Plant response rating, Crabgrass, Large: `CCCCn1c(CCC)ncc(C(=O)C2=C(O)CCCC2=O)c1=O`
Completion: 100

Prompt: Please look at this compound and report its Plant response rating, Crabgrass, Large: `O=C1CCCC([O-])=C1C(=O)c1cnc(-c2ccccc2)n(-c2ccccc2)c1=O.[K+]`
Completion: 50

Prompt: Please look at this compound and report its Plant response rating, Crabgrass, Large: `O=C1CCCC(O)=C1C(=O)c1cnc(-c2ccccc2)n(-c2ccc(F)cc2)c1=O`
Completion: 98

Prompt: Please look at this compound and report its Plant response rating, Crabgrass, Large: `Cc1ccc(C)c(-n2c(-c3ccccc3)ncc(C(=O)C3=C(O)CCCC3=O)c2=O)c1`
Completion: 100

Prompt: Please look at this compound and report its Plant response rating, Crabgrass, Large: `Cc1ccc(Cl)cc1-n1c(-c2ccccc2)ncc(C(=O)C2=C(O)CCCC2=O)c1=O`
Completion: 98

###

# System: windgrass (Apera spica-venti)
# assayName: Test B postemergence plant response
# Assay type: in vivo
# measurementContext: Postemergence, 125 g ai/ha; scale 0 to 100 (0 no effect, 100 complete control)
readoutKind: Plant response rating, Windgrass
Answer with a bare number; do not write a unit.

For orientation, consider the following solved cases.
smilesData: COCCn1c(-c2cccs2)ncc(C(=O)C2=C(O)CCCC2=O)c1=O
Plant response rating, Windgrass: 30

smilesData: O=C1CCCC(O)=C1C(=O)c1cnc(-c2ccccc2)n(C2CCCCCC2)c1=O
Plant response rating, Windgrass: 75

smilesData: Cc1ccc(-n2c(-c3cc(F)cc(F)c3)ncc(C(=O)C3=C(O)CCCC3=O)c2=O)cc1
Plant response rating, Windgrass: 60

smilesData: CCCn1c(-c2cccc(F)c2)ncc(C(=O)C2=C(O)CCCC2=O)c1=O
Plant response rating, Windgrass: 55

smilesData: CCCn1c(-c2cccc(OC)c2)ncc(C(=O)C2=C(O)CCCC2=O)c1=O
Plant response rating, Windgrass: 45

smilesData: O=C1CCCC(O)=C1C(=O)c1cnc(-c2ccsc2)n(C2CCOCC2)c1=O
Plant response rating, Windgrass: 50

Now consider the entry below.
Prompt: Please look at this compound and report its Plant response rating, Windgrass: `COCCCn1c(-c2cccc(F)c2)ncc(C(=O)C2=C(O)CCCC2=O)c1=O`
Completion: 40
